biological target: UniProt:P10275; assay: AR Antagonist Cell Assay (MMTV-luciferase reporter, DHT-stimulated); conditions: MDA-MB453-MMTV clone 54-19 cells, inhibition of induction by 100 pM DHT, 17 hr
Sequence (P10275 whole entry Q868H, form open): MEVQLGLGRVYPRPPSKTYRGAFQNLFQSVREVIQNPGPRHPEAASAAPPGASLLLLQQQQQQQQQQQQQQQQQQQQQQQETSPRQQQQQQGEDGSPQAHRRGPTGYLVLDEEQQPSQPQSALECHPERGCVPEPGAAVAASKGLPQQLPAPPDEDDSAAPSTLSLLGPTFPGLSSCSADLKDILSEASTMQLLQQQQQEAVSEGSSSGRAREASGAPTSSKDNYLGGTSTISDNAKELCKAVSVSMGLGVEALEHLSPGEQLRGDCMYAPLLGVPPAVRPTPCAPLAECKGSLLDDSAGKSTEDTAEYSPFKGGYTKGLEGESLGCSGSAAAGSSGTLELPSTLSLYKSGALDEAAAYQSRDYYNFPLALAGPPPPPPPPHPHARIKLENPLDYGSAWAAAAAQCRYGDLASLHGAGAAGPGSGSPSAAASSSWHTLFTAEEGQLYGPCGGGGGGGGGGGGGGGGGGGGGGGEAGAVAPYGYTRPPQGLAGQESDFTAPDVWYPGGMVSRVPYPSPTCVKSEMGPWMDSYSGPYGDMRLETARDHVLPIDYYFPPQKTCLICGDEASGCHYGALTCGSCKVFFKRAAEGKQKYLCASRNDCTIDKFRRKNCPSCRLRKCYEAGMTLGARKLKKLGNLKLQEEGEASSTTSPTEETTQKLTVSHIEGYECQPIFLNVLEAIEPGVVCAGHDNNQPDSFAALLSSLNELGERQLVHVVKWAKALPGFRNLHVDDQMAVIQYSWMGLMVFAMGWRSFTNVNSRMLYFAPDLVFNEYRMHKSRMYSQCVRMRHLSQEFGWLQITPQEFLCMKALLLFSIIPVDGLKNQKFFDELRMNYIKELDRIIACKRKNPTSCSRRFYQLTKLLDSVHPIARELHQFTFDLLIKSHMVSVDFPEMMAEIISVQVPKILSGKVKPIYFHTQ
For each entry below, report its pIC50 value.
Answers are plain numbers, as −log10 of the molar value.

Study these solved cases before continuing.
molecule	reading
O=c1cc(C(F)(F)F)c2cc(Cc3ccc(S(=O)(=O)N4CCN(CCCO)CC4)cc3)ccc2o1	5.09
CC1CCCCN1S(=O)(=O)c1ccc(Cc2ccc3oc(=O)cc(C(F)(F)F)c3c2)cc1 (stereo not shown)	5.01
COCCN1CCN(S(=O)(=O)c2ccc(Cc3ccc4oc(=O)cc(C(F)(F)F)c4c3)cc2)CC1	5.03

// sample `O=c1cc(C(F)(F)F)c2cc(Cc3ccc(S(=O)(=O)N4CCC(O)(c5cccs5)CC4)cc3)ccc2o1` , its pIC50 was 5.07
